Values compiled from ChEMBL document CHEMBL4715691.

System: MCF7
Protocol: Selective estrogen receptor modulator activity in human MCF7 cells assessed as E2-induced progesterone receptor mRNA expression level at 1 uM incubated for 24 hrs by real time PCR analysis (reference value: 100%)
Format: cell-based
Test Parameters: filed as modulator
Property Measured: Activity (%)
Give a bare numeral; the unit % is implied.

Input line: # Activity lookup, item "Oc1ccc(C(=C(Cn2ccnc2)c2ccc(O)c(F)c2)c2ccc(O)cc2)cc1"
Output line: 26

Input line: # Activity lookup, item "Oc1ccc(C(=C(Cn2ccnc2)c2ccccc2)c2ccc(O)cc2)cc1"
Output line: 26

Input line: # Activity lookup, item "Nc1ccc(C(Cn2ccnc2)=C(c2ccc(O)cc2)c2ccc(O)cc2)cc1"
Output line: 26

Input line: # Activity lookup, item "Oc1ccc(C(Cn2ccnc2)=C(c2ccc(O)cc2)c2ccc(O)cc2)cc1"
Output line: 26

----------
Measurement Target: Estrogen receptor (Homo sapiens) (UniProt P03372)
Sequence (whole entry): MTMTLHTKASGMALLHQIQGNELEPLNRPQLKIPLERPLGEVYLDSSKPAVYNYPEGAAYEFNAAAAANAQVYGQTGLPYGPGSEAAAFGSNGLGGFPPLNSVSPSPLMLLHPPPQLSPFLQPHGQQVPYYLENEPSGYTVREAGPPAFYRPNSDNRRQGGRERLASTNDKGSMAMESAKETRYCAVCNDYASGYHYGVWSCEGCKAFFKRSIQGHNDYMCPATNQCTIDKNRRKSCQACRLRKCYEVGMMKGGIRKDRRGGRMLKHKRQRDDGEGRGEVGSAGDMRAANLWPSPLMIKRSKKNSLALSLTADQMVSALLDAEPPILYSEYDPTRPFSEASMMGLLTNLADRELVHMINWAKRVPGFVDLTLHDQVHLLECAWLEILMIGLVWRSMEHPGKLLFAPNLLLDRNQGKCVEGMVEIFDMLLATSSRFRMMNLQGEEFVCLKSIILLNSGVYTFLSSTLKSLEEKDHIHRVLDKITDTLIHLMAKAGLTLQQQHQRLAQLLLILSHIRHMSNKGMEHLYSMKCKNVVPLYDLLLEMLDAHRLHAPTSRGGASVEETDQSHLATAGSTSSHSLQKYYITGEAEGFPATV
Protocol: Displacement of ES2 from recombinant human ER-alpha at 100 uM incubated for 2 hrs by fluorescence based assay relative to control
Test Parameters: filed as modulator
Property Measured: inhibition (%)
Give a bare numeral; the unit % is implied.

See these solved cases before continuing.
N#CCC(=C(c1ccc(O)cc1)c1ccc(O)cc1)c1ccccc1; 56
Oc1ccc(C(Cn2cncn2)=C(c2ccc(O)cc2)c2ccc(O)cc2)cc1; 45
Nc1cccc(C(Cn2ccnc2)=C(c2ccc(O)cc2)c2ccc(O)cc2)c1; 60

From here, focus on the item given below.
Input line: # inhibition lookup, item "CCC(=C(c1ccc(O)cc1)c1ccc(O)cc1)c1ccccc1"
Output line: 80
